Where these numbers come from: the supplement of paper PMC11821682

# maps each entry to its BMC10 any morphological effect or mortality
- System: Danio rerio embryo
- PROTOCOL: BMC10 any morphological effect or mortality at 120 hpf; higher = less toxic
MEASUREMENT LABEL: BMC10 any morphological effect or mortality

>>> result("Cc1cc(Nc2nc(N[C@@H](C)c3ccc(F)cc3)c(C#N)cc2F)n[nH]1 [AZ-960]")
"1.27 µM"
>>> result("CCOC(=O)CN[C@@H](C(=O)N1CC[C@H]1C(=O)NCc1ccc(C(=N)NO)cc1)C1CCCCC1 [Ximelagatran]")
"> 100 µM"
>>> result("O=C(Nc1ccccc1F)N[C@H]1N=C(c2ccccc2)c2ccccc2NC1=O [RSV-604]")
"> 100 µM"
>>> result("CC(=O)N[C@H]1[C@H]([C@H](O)[C@H](O)CO)OC(C(=O)O)=C[C@@H]1NC(=N)N [Zanamivir]")
"> 100 µM"
>>> result("O=c1c(-c2ccc(O)cc2)coc2cc(O[C@@H]3O[C@H](CO)[C@@H](O)[C@H](O)[C@H]3O)ccc12 [Daidzin]")
"> 100 µM"
>>> result("CCOC(=O)[C@H]1O[C@@H]1C(=O)N[C@@H](CC(C)C)C(=O)NCCC(C)C [Aloxistatin]")
"10.6 µM"
>>> result("Cc1cnc(C(=O)N[C@H]2CCCCC/C=C\\[C@@H]3C[C@@]3(C(=O)NS(=O)(=O)C3CC3)NC(=O)[C@@H]3C[C@@H](Oc4nc5ccccc5c5ccccc45)CN3C2=O)cn1 [Paritaprevir]")
"> 100 µM"
>>> result("Nc1ccc(C(=O)Nc2cccc(-c3nc(N4CCOCC4)c4oc5ncccc5c4n3)c2)cn1")
"> 100 µM"
>>> result("COc1ccc(C2CC(=O)c3c(O)cc(O)cc3O2)cc1O (centres undefined) [Hesperetin]")
"> 100 µM"
>>> result("CCN(CC)CCOc1ccc2c(c1)C(=O)c1cc(OCCN(CC)CC)ccc1-2.Cl.Cl [Tilorone]")
"3.55 µM"
>>> result("CC(=O)c1c(O)cc(O)cc1O.O [Phloroacetophenone]")
"> 100 µM"
>>> result("O=C1C=CC2=C(C(OC/C=C(C)/C)=C(OC=C3)C3=C2)O1 [Imperatorin]")
"2.05 µM"
>>> result("CC1(C)CC[C@]2(C(=O)O[C@@H]3O[C@H](CO)[C@@H](O)[C@H](O)[C@H]3O)CC[C@]3(C)C(=CC[C@@H]4[C@@]5(C)CC[C@H](O[C@@H]6O[C@H](C(=O)O)[C@@H](O)[C@H](O)[C@H]6O[C@@H]6O[C@H](CO)[C@@H](O)[C@H](O)[C@H]6O)C(C)(C)[C@@H]5CC[C@]43C)[C@@H]2C1 [Ginsenoside Ro]")
"> 100 µM"
>>> result("c1cc(CN2CCCNCCNCCCNCC2)ccc1CN1CCCNCCNCCCNCC1 [Plerixafor]")
"> 100 µM"
